These entries and their values trace back to paper PMC9516332.

# tested.on: panel of 255 wild-type kinases (Homo sapiens)
# assay.remarks: Kinase panel profiling at 1 µmol/L (MSA or IMAP), percentage inhibition
# Format: biochemical
# cond: CaMK2γ kinase assay; 1 µmol/L single concentration; read-out: %-inhibition CaMK2γ
attribute.measured: inhibition at 1 µM (%)

| smiles.str | unit.descriptor | result |
| --- | --- | --- |
| FC(F)(F)c1ccc(CNc2ccc(Cc3c[nH]c4ncc(Cl)cc34)cn2)cn1 | % | 0.769 |
| Cc1nc(NC(=O)N2CCC[C@H]2C(N)=O)sc1-c1ccnc(C(C)(C)C(F)(F)F)c1 | % | 0.455 |
| C[C@H](Nc1ncnc2nc[nH]c12)c1cc2cccc(Cl)c2c(=O)n1-c1ccccc1 | % | 0.463 |
| CN1CCN(c2ccc(C(=O)Nc3n[nH]c4ccc(Cc5cc(F)cc(F)c5)cc34)c(NC3CCOCC3)c2)CC1 | % | 17 |

----------
# tested.on: panel of 255 wild-type kinases (Homo sapiens)
# assay.remarks: Kinase panel profiling at 1 µmol/L (MSA or IMAP), percentage inhibition
# Assay type: biochemical
# cond: kinase CLK3; 1 µmol/L single concentration; read-out: %-inhibition at 1 µmol/L, CLK3

| smiles.str | inhibition at 1 µM (%) |
| --- | --- |
| C=CC(=O)N1CCC([C@@H]2CCNc3c(C(N)=O)c(-c4ccc(Oc5ccccc5)cc4)nn32)CC1 | -3.73 |
| CN1CCN(c2ccc(C(=O)Nc3n[nH]c4ccc(Cc5cc(F)cc(F)c5)cc34)c(NC3CCOCC3)c2)CC1 | 3.46 |
| CCn1c(=O)c(-c2cc(NC(=O)Nc3ccccc3)c(F)cc2Br)cc2cnc(NC)cc21 | -7 |

----------
# tested.on: panel of 255 wild-type kinases (Homo sapiens)
# assay.remarks: Kinase panel profiling at 1 µmol/L (MSA or IMAP), percentage inhibition
# Type: biochemical
# cond: kinase FMS; 1 µmol/L single concentration; read-out: %-inhibition at 1 µmol/L, FMS

| compound | tested.on | inhibition at 1 µM (%) |
| --- | --- | --- |
| CN1CCN(c2ccc(C(=O)Nc3n[nH]c4ccc(Cc5cc(F)cc(F)c5)cc34)c(NC3CCOCC3)c2)CC1 [entrectinib] | panel of 255 wild-type kinases (Homo sapiens) | 86 |
| CCN1CCN(c2ccc(Nc3cc(N(C)C(=O)Nc4c(Cl)c(OC)cc(OC)c4Cl)ncn3)cc2)CC1 [infigratinib] | panel of 255 wild-type kinases (Homo sapiens) | 96 |
| CCn1c(=O)c(-c2cc(NC(=O)Nc3ccccc3)c(F)cc2Br)cc2cnc(NC)cc21 [ripretinib] | panel of 255 wild-type kinases (Homo sapiens) | 71 |
| C[C@H](Nc1ncnc2nc[nH]c12)c1cc2cccc(Cl)c2c(=O)n1-c1ccccc1 [duvelisib] | panel of 255 wild-type kinases (Homo sapiens) | 2.22 |
| Cc1cc(Nc2ncnc3ccc(NC4=NC(C)(C)CO4)cc23)ccc1Oc1ccn2ncnc2c1 [tucatinib] | panel of 255 wild-type kinases (Homo sapiens) | 12 |
| C[C@H]1Oc2cc(cnc2N)-c2c(nn(C)c2C#N)CN(C)C(=O)c2ccc(F)cc21 [lorlatinib] | panel of 255 wild-type kinases (Homo sapiens) | 32 |
| FC(F)(F)c1ccc(CNc2ccc(Cc3c[nH]c4ncc(Cl)cc34)cn2)cn1 [pexidartinib] | panel of 255 wild-type kinases (Homo sapiens) | 95 |
| COC(=O)N[C@@H](C)CNc1nccc(-c2cn(C(C)C)nc2-c2cc(Cl)cc(NS(C)(=O)=O)c2F)n1 [encorafenib] | panel of 255 wild-type kinases (Homo sapiens) | 8 |

----------
# tested.on: panel of 255 wild-type kinases (Homo sapiens, UniProt P23458)
# Sequence (P23458 whole entry): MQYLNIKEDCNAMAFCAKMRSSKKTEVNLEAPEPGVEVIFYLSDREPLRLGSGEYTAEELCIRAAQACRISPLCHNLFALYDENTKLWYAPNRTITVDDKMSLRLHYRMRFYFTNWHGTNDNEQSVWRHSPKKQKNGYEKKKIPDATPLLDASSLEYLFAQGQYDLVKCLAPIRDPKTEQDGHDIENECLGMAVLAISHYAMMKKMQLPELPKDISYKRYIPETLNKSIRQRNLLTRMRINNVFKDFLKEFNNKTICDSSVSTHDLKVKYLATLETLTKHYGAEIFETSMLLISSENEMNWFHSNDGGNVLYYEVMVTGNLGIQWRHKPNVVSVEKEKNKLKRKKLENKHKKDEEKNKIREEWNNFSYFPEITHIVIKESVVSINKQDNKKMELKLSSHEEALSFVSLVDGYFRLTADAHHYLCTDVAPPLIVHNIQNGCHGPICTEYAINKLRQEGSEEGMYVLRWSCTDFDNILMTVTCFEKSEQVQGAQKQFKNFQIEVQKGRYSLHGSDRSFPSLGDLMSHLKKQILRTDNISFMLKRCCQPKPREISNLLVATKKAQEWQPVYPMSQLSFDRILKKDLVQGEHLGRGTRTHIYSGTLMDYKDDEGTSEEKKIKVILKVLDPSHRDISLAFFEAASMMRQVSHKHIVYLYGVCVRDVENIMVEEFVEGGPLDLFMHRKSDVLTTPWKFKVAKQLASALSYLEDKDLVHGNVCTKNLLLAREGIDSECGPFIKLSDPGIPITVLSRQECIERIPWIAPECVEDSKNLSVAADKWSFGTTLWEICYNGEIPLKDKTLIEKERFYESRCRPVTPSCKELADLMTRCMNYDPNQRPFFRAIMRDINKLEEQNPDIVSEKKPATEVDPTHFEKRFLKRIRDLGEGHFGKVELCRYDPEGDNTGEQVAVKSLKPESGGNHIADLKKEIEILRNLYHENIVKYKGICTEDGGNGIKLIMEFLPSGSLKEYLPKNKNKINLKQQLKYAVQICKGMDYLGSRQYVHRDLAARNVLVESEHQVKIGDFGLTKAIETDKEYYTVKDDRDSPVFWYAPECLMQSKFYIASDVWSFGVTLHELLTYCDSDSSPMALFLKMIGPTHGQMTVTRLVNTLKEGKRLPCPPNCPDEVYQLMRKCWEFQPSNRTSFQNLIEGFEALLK
# assay.remarks: Kinase panel profiling at 1 µmol/L (MSA or IMAP), percentage inhibition
# Format: biochemical
# cond: kinase JAK1; 1 µmol/L single concentration; read-out: %-inhibition at 1 µmol/L, JAK1
In this section, each of the compounds is paired with its reported inhibition at 1 µM.
attribute.measured: inhibition at 1 µM (%)

| smiles.str | result |
| --- | --- |
| COc1ccc(CN2C3CC2CN(c2ccc(-c4cc(OCC(C)(C)O)cn5ncc(C#N)c45)cn2)C3)cn1 | 6 |
| C[C@H]1Oc2cc(cnc2N)-c2c(nn(C)c2C#N)CN(C)C(=O)c2ccc(F)cc21 | -0.817 |
| CCc1nc(C(N)=O)c(Nc2ccc(N3CCC(N4CCN(C)CC4)CC3)c(OC)c2)nc1NC1CCOCC1 | 24 |
| CCN1C(=O)N(c2c(F)c(OC)cc(OC)c2F)Cc2cnc3[nH]c(CN4CCOCC4)cc3c21 | -2.65 |
| CO[C@]1(C(=O)N[C@@H](C)c2ccc(-n3cc(F)cn3)nc2)CC[C@H](c2nc(C)cc(Nc3cc(C)[nH]n3)n2)CC1 | 101 |
| Cc1cc(Nc2ncnc3ccc(NC4=NC(C)(C)CO4)cc23)ccc1Oc1ccn2ncnc2c1 | 2.72 |
| Cn1cc(-c2cc3c(N4CCN(c5ncc([C@@](C)(N)c6ccc(F)cc6)cn5)CC4)ncnn3c2)cn1 | 29 |
| O=C(Nc1cnn2ccc(N3CCC[C@@H]3c3cc(F)ccc3F)nc12)N1CC[C@H](O)C1 | 0.894 |

----------
In this section, each of the compounds is paired with its reported inhibition at 1 µM.
# tested.on: panel of 255 wild-type kinases (Homo sapiens)
# assay.remarks: Kinase panel profiling at 1 µmol/L (MSA or IMAP), percentage inhibition
# Type: biochemical
# cond: CDK9/CycT1 kinase assay; 1 µmol/L single concentration; read-out: %-inhibition CDK9/CycT1
attribute.measured: inhibition at 1 µM (%)

| compound | result |
| --- | --- |
| CCN1CCN(c2ccc(Nc3cc(N(C)C(=O)Nc4c(Cl)c(OC)cc(OC)c4Cl)ncn3)cc2)CC1 [infigratinib] | -0.383 |
| CCc1nc(C(N)=O)c(Nc2ccc(N3CCC(N4CCN(C)CC4)CC3)c(OC)c2)nc1NC1CCOCC1 [gilteritinib] | 32 |
| CCn1c(=O)c(-c2cc(NC(=O)Nc3ccccc3)c(F)cc2Br)cc2cnc(NC)cc21 [ripretinib] | 0.112 |
| C[C@H]1Oc2cc(cnc2N)-c2c(nn(C)c2C#N)CN(C)C(=O)c2ccc(F)cc21 [lorlatinib] | -2.48 |

----------
In this section, each of the molecules is paired with its reported inhibition at 1 µM.
# tested.on: panel of 255 wild-type kinases (Homo sapiens)
# assay.remarks: Kinase panel profiling at 1 µmol/L (MSA or IMAP), percentage inhibition
# Type: biochemical
# cond: kinase PHKG1; 1 µmol/L single concentration; read-out: %-inhibition at 1 µmol/L, PHKG1

| smiles.str | inhibition at 1 µM, % |
| --- | --- |
| C[C@H]1Oc2cc(cnc2N)-c2c(nn(C)c2C#N)CN(C)C(=O)c2ccc(F)cc21 | 65 |
| COc1ccc(CN2C3CC2CN(c2ccc(-c4cc(OCC(C)(C)O)cn5ncc(C#N)c45)cn2)C3)cn1 | 8 |
| FC(F)(F)c1ccc(CNc2ccc(Cc3c[nH]c4ncc(Cl)cc34)cn2)cn1 | 21 |

----------
# tested.on: panel of 255 wild-type kinases (Homo sapiens, UniProt Q9H093)
# Sequence (Q9H093 whole entry): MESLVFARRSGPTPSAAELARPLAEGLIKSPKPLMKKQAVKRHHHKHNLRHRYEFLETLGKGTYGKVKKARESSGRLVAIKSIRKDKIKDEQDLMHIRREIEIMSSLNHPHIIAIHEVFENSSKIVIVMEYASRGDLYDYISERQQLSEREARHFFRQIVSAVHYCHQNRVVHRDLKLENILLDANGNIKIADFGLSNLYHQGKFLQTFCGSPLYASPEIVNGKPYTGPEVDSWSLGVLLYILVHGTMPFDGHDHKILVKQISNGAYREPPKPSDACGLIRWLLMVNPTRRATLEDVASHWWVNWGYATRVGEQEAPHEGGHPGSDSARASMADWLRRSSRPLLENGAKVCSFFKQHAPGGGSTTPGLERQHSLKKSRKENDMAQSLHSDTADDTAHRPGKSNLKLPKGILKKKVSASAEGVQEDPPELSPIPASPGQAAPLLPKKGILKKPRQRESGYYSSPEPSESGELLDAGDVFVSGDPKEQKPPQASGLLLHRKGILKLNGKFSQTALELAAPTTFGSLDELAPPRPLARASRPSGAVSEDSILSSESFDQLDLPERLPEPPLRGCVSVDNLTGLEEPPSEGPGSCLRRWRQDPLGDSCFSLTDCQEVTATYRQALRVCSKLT
# assay.remarks: Kinase panel profiling at 1 µmol/L (MSA or IMAP), percentage inhibition
# Type: biochemical
# cond: NuaK2; 1 µmol/L single concentration; read-out: %-inhibition, NuaK2
In this section, each of the compounds is paired with its reported inhibition at 1 µM.

| smiles.str | inhibition at 1 µM / % |
| --- | --- |
| Cc1cc(Nc2ncnc3ccc(NC4=NC(C)(C)CO4)cc23)ccc1Oc1ccn2ncnc2c1 | 6.61 |
| CCN1C(=O)N(c2c(F)c(OC)cc(OC)c2F)Cc2cnc3[nH]c(CN4CCOCC4)cc3c21 | 1.46 |
| Cc1nc(NC(=O)N2CCC[C@H]2C(N)=O)sc1-c1ccnc(C(C)(C)C(F)(F)F)c1 | 6 |
| CN1CCN(c2ccc(C(=O)Nc3n[nH]c4ccc(Cc5cc(F)cc(F)c5)cc34)c(NC3CCOCC3)c2)CC1 | 95 |

----------
In this section, each of the compounds is paired with its reported IC50.
# Test system: 134 cancer cell lines
# assay.remarks: Cell viability assay (ATPlite, 72 hours), IC50 on cancer cell line panel
# cond: Homo sapiens, SNU-5, read-out: IC50 in cell proliferation assay, cell line SNU-5 (MET amplification)

| compound | IC50 |
| --- | --- |
| CC(C)(C)c1nc(-c2cccc(NS(=O)(=O)c3c(F)cccc3F)c2F)c(-c2ccnc(N)n2)s1 [dabrafenib] | > 10 µM |
| O=C(Nc1cnn2ccc(N3CCC[C@@H]3c3cc(F)ccc3F)nc12)N1CC[C@H](O)C1 [larotrectinib] | > 31.6 µM |
| CCN1CCN(c2ccc(Nc3cc(N(C)C(=O)Nc4c(Cl)c(OC)cc(OC)c4Cl)ncn3)cc2)CC1 [infigratinib] | > 3.16 µM |
| CO[C@]1(C(=O)N[C@@H](C)c2ccc(-n3cc(F)cn3)nc2)CC[C@H](c2nc(C)cc(Nc3cc(C)[nH]n3)n2)CC1 [pralsetinib] | > 31.6 µM |
| Cc1cc(Nc2ncnc3ccc(NC4=NC(C)(C)CO4)cc23)ccc1Oc1ccn2ncnc2c1 [tucatinib] | 24.6 µM |
| Cc1cc(Nc2ncc(Cl)c(Nc3ccccc3S(=O)(=O)C(C)C)n2)c(OC(C)C)cc1C1CCNCC1 [ceritinib] | 3.87 µM |
| CCc1nc(C(N)=O)c(Nc2ccc(N3CCC(N4CCN(C)CC4)CC3)c(OC)c2)nc1NC1CCOCC1 [gilteritinib] | 0.466 µM |
